Target: T1, GST-MTDH (364-582), wild type (human, UniProt Q86UE4 364-582)
T1 construct: not shown: N-terminal GST tag with TEV site, pQlink vector
T1 sequence: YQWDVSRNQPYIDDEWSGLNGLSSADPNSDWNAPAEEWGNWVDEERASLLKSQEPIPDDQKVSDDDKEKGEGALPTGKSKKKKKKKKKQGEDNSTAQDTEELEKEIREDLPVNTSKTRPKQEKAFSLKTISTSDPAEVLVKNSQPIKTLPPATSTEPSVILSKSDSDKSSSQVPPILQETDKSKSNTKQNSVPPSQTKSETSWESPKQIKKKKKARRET
Assay: pull-down by GST-MTDH (364-582) on glutathione resin, SDS-PAGE, Coomassie blue; normalised percentage of binding, mean±SEM of three experiments
Reported % Maximum binding is given for each of the following binders.
A number alone suffices; assume %.

SND1 (16-339) F250A (other, not shown: N-terminal His tag (His6, His8 or His) with TEV site, pQlink vector) VPTVQRGIIKMVLSGCAIIVRGQPRGGPPPERQINLSNIRAGNLARRAAATQPDAKDTPDEPWAFPAREFLRKKLIGKEVCFTIENKTPQGREYGMIYLGKDTNGENIAESLVAEGLATRREGMRANNPEQNRLSECEEQAKAAKKGMWSEGNGSHTIRDLKYTIENPRHFVDSHHQKPVNAIIEHVRDGSVVRALLLPDYYLVTVMLSGIKCPTFRREADGSETPEPFAAEAKAFTESRLLQRDVQIILESCHNQNILGTILHPNGNITELLLKEGFARCVDWSIAVYTRGAEKLRAAERFAKERRLRIWRDYVAPTANLDQK: 9
His-SND1(16-339) P43G (other, mutant named only on the sheet) single chain: VPTVQRGIIKMVLSGCAIIVRGQPRGGGPPERQINLSNIRAGNLARRAAATQPDAKDTPDEPWAFPAREFLRKKLIGKEVCFTIENKTPQGREYGMIYLGKDTNGENIAESLVAEGLATRREGMRANNPEQNRLSECEEQAKAAKKGMWSEGNGSHTIRDLKYTIENPRHFVDSHHQKPVNAIIEHVRDGSVVRALLLPDYYLVTVMLSGIKCPTFRREADGSETPEPFAAEAKFFTESRLLQRDVQIILESCHNQNILGTILHPNGNITELLLKEGFARCVDWSIAVYTRGAEKLRAAERFAKERRLRIWRDYVAPTANLDQK: 67
His-SND1(16-339) P43G/R324E (protein) single chain: VPTVQRGIIKMVLSGCAIIVRGQPRGGGPPERQINLSNIRAGNLARRAAATQPDAKDTPDEPWAFPAREFLRKKLIGKEVCFTIENKTPQGREYGMIYLGKDTNGENIAESLVAEGLATRREGMRANNPEQNRLSECEEQAKAAKKGMWSEGNGSHTIRDLKYTIENPRHFVDSHHQKPVNAIIEHVRDGSVVRALLLPDYYLVTVMLSGIKCPTFRREADGSETPEPFAAEAKFFTESRLLQRDVQIILESCHNQNILGTILHPNGNITELLLKEGFARCVDWSIAVYTRGAEKLRAAERFAKERRLEIWRDYVAPTANLDQK: 9

Entry SND1 (16-339) R324A (other, not shown: N-terminal His tag (His6, His8 or His) with TEV site, pQlink vector) VPTVQRGIIKMVLSGCAIIVRGQPRGGPPPERQINLSNIRAGNLARRAAATQPDAKDTPDEPWAFPAREFLRKKLIGKEVCFTIENKTPQGREYGMIYLGKDTNGENIAESLVAEGLATRREGMRANNPEQNRLSECEEQAKAAKKGMWSEGNGSHTIRDLKYTIENPRHFVDSHHQKPVNAIIEHVRDGSVVRALLLPDYYLVTVMLSGIKCPTFRREADGSETPEPFAAEAKFFTESRLLQRDVQIILESCHNQNILGTILHPNGNITELLLKEGFARCVDWSIAVYTRGAEKLRAAERFAKERRLAIWRDYVAPTANLDQK — recorded % Maximum binding = 70
